Where these numbers come from: the kinase profiling compilation of Christmann-Franck et al. (2016)

target_or_system: TTK (human) (UniProt P33981)
Sequence (P33981 whole entry, looked up): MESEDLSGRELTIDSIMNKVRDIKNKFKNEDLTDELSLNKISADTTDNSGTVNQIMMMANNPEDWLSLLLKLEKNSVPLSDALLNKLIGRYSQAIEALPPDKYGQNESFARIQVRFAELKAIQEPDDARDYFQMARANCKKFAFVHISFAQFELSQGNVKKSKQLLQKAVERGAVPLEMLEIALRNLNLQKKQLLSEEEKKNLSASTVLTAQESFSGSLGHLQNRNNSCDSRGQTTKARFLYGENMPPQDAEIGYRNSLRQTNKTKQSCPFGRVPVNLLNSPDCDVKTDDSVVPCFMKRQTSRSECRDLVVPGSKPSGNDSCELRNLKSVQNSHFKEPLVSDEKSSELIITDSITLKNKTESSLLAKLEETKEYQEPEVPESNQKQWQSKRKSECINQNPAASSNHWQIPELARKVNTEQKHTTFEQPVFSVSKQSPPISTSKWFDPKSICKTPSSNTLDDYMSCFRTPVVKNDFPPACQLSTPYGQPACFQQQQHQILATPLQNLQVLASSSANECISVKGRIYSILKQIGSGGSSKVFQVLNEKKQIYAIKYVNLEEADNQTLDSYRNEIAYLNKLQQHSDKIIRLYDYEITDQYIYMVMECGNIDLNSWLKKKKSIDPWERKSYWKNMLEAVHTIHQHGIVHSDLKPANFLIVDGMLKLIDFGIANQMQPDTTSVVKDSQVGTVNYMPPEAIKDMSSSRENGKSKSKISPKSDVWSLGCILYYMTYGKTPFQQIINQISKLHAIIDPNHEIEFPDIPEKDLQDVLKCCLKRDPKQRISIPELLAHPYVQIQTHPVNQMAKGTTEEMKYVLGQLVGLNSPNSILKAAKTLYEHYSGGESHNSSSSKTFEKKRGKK
measurement_notes: radiometric filter-binding kinase assay, Kinase HotSpot
experimental_context: compound 0.5 µM; ATP 10 µM
measure_name: residual activity (%)
# number only, unit % dropped from output

Record excerpt, results attached:
> print(dat)
                                   compound              target.or.system  reading.unit  assay.value
1                  Nc1nnc2[nH]c3ccccc3nc1-2  TTK (human) (UniProt P33981)             %          102
2  COc1cc2ncnc(N3CCN(C(=O)Nc4ccc(Oc5ccccc5)cc4)CC3)c2cc1OC  TTK (human) (UniProt P33981)             %         98.3
3       CCN(CC)CCCCN1c2ccccc2Oc2ccc(Cl)cc21  TTK (human) (UniProt P33981)             %          104
4           Cc1nc2cc3nc(-c4cccs4)cnc3cc2n1C  TTK (human) (UniProt P33981)             %         92.6
5      O=C1Nc2ccccc2/C1=C1\Nc2ccccc2\C1=N/O  TTK (human) (UniProt P33981)             %           68
6       Cn1cnc2cc3c(Nc4cccc(Br)c4)ncnc3cc21  TTK (human) (UniProt P33981)             %         95.7
7  CC(C)[C@H](CO)Nc1nc(Nc2cc(N)cc(Cl)c2)c2ncn(C(C)C)c2n1  TTK (human) (UniProt P33981)             %         84.5
8  O=C1NC(=O)C(c2c[nH]c3ccccc23)=C1c1c[nH]c2ccccc12  TTK (human) (UniProt P33981)             %          106

Input line: Hello, please tell me recorded residual activity for this one: CN([C@@H](Cc1ccc(OS(=O)(=O)c2cccc3cnccc23)cc1)C(=O)N1CCN(c2ccccc2)CC1)S(=O)(=O)c1cccc2cnccc12
Output line: 86

Input line: Hello, please tell me recorded residual activity for this one: O=C1NC(=O)/C(=C\c2ccc3nccnc3c2)S1
Output line: 102

Input line: Hello, please tell me recorded residual activity for this one: Nc1nccc(-c2c(-c3ccc(F)cc3)ncn2C2CCNCC2)n1
Output line: 107

Input line: Hello, please tell me recorded residual activity for this one: O=C1Cc2c([nH]c3ccc(Br)cc23)-c2ccccc2N1
Output line: 80.9

Input line: Hello, please tell me recorded residual activity for this one: Cn1nc2c3c(cccc31)C(=O)c1ccccc1-2
Output line: 77.7

Input line: Hello, please tell me recorded residual activity for this one: Cn1sc(=O)n(Cc2ccccc2)c1=O
Output line: 101

====

target_or_system: PKN2 (human)
measurement_notes: radiometric filter-binding kinase assay, Kinase HotSpot
experimental_context: compound 0.5 µM; ATP 10 µM
measure_name: residual activity (%)
# number only, unit % dropped from output

Record excerpt, results attached:
> print(dat)
                           smiles.structure       measure.name  assay.value
1  O=C1NC(=O)C(c2cn(CCCO)c3ncccc23)=C1c1cnccn1  residual activity         83.3
2  CC(C)[C@H](CO)Nc1nc(Nc2cc(N)cc(Cl)c2)c2ncn(C(C)C)c2n1  residual activity           98
3       Cn1cnc2cc3c(Nc4cccc(Br)c4)ncnc3cc21  residual activity         85.7

We now examine a further compound.
Input line: Fill in: residual activity on PKN2 (human), entry O=C1NC(=O)/C(=C\c2ccc3nccnc3c2)S1
Output line: 107

====

target_or_system: AKT1 (human)
measurement_notes: radiometric filter-binding kinase assay, Kinase HotSpot
experimental_context: compound 0.5 µM; ATP 10 µM
In this section, each of the compounds is paired with its reported residual activity.
Give the number first and the unit second.

> print(dat)
                           smiles.structure       measure.name  assay.value
1  COc1ccc(CNC(=O)Nc2ncc([N+](=O)[O-])s2)cc1  residual activity         102%
2       CCN(CC)CCCCN1c2ccccc2Oc2ccc(Cl)cc21  residual activity         112%
3  O=C(Nc1cccc(Nc2cc(Nc3cccc(C(F)(F)F)c3)ncn2)c1)C1CC1  residual activity         102%
4           Cc1nc2cc3nc(-c4cccs4)cnc3cc2n1C  residual activity         114%

We now examine a further compound.
Input line: Hello, please tell me recorded residual activity for this one: Cn1sc(=O)n(Cc2ccccc2)c1=O
Output line: 101%

====

In this section, each of the compounds is paired with its reported residual activity.
target_or_system: UniProt Q16288
Sequence (Q16288 whole entry, looked up): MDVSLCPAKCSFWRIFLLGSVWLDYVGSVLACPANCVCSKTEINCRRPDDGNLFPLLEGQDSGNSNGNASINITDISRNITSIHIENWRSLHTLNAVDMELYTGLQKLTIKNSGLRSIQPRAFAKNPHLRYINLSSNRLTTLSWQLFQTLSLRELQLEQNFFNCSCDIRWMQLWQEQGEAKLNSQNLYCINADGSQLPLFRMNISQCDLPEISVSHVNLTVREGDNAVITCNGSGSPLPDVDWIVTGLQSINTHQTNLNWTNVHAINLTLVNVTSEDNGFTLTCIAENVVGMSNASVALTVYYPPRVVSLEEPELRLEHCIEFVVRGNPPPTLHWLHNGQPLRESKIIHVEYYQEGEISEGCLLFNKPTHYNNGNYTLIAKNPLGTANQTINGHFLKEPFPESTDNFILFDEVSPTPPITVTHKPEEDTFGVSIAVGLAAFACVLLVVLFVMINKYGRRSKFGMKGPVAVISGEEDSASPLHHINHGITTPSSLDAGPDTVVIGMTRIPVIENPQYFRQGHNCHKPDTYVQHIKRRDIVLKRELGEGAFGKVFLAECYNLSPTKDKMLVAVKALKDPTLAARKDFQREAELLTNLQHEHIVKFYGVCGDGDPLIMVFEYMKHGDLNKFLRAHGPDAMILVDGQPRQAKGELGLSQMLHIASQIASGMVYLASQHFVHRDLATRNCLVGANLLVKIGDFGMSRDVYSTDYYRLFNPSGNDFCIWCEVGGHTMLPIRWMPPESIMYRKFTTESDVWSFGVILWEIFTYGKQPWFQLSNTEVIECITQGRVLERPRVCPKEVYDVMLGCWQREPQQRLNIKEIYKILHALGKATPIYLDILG
measurement_notes: radiometric filter-binding kinase assay, Kinase HotSpot
experimental_context: compound 0.5 µM; ATP 10 µM
# number only, unit % dropped from output

Record excerpt, results attached:
> print(dat)
                                   compound  assay.value
1         O=C(O)/C=C/c1cc(Br)c(Br)c(Br)c1Br         90.6
2           Cc1nc2cc3nc(-c4cccs4)cnc3cc2n1C         59.9
3  CC(C)[C@H](CO)Nc1nc(Nc2cc(N)cc(Cl)c2)c2ncn(C(C)C)c2n1         4.42

Input line: Hello, please tell me recorded residual activity for this one: Cn1sc(=O)n(Cc2ccccc2)c1=O
Output line: 107

Input line: Hello, please tell me recorded residual activity for this one: COc1ccc(CNC(=O)Nc2ncc([N+](=O)[O-])s2)cc1
Output line: 98.7

Input line: Hello, please tell me recorded residual activity for this one: CC(C)c1nn(-c2c(Cl)cccc2Cl)c2nc(Cc3ccc(OCCO)cc3)nc(O)c12
Output line: 90.5

====

In this section, each of the molecules is paired with its reported residual activity.
target_or_system: LTK (human)
measurement_notes: radiometric filter-binding kinase assay, Kinase HotSpot
experimental_context: compound 0.5 µM; ATP 10 µM
# number only, unit % dropped from output

> print(dat)
                       smiles.structure  assay.value
1  O=C1Nc2ccccc2/C1=C1\Nc2ccccc2\C1=N/O         62.3

We now examine a further molecule.
Input line: Hello, please tell me recorded residual activity for this one: CCN(CC)CCCCN1c2ccccc2Oc2ccc(Cl)cc21
Output line: 98.4

====

target_or_system: JAK3 JH1 JH2 (human) (UniProt P52333)
Sequence (P52333 whole entry, looked up): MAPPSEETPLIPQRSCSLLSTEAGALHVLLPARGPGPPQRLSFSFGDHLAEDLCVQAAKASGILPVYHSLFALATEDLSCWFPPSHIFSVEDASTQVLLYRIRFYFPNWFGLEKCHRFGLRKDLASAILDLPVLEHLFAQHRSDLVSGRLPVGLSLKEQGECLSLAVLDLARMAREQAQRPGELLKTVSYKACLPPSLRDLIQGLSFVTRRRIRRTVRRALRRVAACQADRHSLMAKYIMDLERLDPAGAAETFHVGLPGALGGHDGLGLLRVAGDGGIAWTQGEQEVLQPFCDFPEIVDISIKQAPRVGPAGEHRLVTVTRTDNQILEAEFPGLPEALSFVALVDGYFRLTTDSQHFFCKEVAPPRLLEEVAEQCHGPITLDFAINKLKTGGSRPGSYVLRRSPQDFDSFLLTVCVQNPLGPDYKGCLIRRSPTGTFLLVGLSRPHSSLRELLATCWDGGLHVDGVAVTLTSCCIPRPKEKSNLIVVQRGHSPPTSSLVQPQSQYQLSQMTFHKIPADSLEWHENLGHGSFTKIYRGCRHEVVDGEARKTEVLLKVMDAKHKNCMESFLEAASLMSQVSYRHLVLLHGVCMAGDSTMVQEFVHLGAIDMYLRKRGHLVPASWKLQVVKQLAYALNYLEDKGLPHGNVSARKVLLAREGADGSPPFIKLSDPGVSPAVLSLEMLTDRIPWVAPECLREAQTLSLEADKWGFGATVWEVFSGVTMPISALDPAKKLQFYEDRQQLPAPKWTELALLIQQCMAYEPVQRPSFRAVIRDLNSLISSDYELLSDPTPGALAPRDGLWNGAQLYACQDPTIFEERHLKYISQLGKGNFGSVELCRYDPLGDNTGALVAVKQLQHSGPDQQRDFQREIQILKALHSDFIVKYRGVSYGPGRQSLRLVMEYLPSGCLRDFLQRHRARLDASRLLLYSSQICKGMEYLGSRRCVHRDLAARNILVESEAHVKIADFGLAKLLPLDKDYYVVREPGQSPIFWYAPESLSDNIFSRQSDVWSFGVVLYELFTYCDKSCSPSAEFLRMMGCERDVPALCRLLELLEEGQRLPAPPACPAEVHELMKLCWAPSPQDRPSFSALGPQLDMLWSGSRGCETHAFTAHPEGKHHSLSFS
measurement_notes: radiometric filter-binding kinase assay, Kinase HotSpot
experimental_context: compound 0.5 µM; ATP 10 µM
In this section, each of the molecules is paired with its reported residual activity.
# number only, unit % dropped from output

Input line: Hello, please tell me recorded residual activity for this one: CC(=O)O/N=C1\C(=C2\C(=O)Nc3cc(Br)ccc32)Nc2ccccc21
Output line: 107

Input line: Hello, please tell me recorded residual activity for this one: Cc1nc2cc3nc(-c4cccs4)cnc3cc2n1C
Output line: 107

Input line: Hello, please tell me recorded residual activity for this one: CC(C)[C@H](CO)Nc1nc(Nc2cc(N)cc(Cl)c2)c2ncn(C(C)C)c2n1
Output line: 108

Input line: Hello, please tell me recorded residual activity for this one: O=C1NC(=O)C(c2cn(CCCO)c3ncccc23)=C1c1cnccn1
Output line: 134

Input line: Hello, please tell me recorded residual activity for this one: COc1cc2ncc(-c3ccccc3)nc2cc1OC
Output line: 90.3

====

In this section, each of the compounds is paired with its reported residual activity.
target_or_system: RPS6KA1 KD1 KD2 (human) (UniProt Q15418)
Sequence (Q15418 whole entry, looked up): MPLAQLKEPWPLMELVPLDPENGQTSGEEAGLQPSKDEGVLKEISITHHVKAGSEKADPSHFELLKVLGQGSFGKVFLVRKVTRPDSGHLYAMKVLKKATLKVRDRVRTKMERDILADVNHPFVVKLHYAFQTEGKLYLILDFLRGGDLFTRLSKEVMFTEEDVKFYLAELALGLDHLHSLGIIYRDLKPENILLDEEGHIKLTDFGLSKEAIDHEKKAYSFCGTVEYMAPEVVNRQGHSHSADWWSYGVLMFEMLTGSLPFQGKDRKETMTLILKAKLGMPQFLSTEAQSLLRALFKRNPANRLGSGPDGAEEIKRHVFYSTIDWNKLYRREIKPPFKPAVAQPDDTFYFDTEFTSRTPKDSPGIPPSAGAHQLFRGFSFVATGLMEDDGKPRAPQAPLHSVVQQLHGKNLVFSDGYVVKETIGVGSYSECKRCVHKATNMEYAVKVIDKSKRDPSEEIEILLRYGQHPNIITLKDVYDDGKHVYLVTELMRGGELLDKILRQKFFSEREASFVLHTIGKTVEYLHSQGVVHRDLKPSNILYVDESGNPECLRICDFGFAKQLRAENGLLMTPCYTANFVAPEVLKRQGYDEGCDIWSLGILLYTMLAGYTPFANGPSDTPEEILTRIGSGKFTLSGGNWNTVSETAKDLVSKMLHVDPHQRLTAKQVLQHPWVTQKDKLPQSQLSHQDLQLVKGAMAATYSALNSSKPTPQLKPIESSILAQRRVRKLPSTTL
measurement_notes: radiometric filter-binding kinase assay, Kinase HotSpot
experimental_context: compound 0.5 µM; ATP 10 µM
# number only, unit % dropped from output

Record excerpt, results attached:
> print(dat)
                           smiles.structure  assay.value
1  CC(=O)O/N=C1\C(=C2\C(=O)Nc3cc(Br)ccc32)Nc2ccccc21           69
2  O=C1NC(=O)C(c2cn(CCCO)c3ncccc23)=C1c1cnccn1         94.8
3  O=C(Nc1cccc(Nc2cc(Nc3cccc(C(F)(F)F)c3)ncn2)c1)C1CC1         95.1

Input line: Hello, please tell me recorded residual activity for this one: CC(C)c1nn(-c2c(Cl)cccc2Cl)c2nc(Cc3ccc(OCCO)cc3)nc(O)c12
Output line: 91.3

Input line: Hello, please tell me recorded residual activity for this one: COc1ccc(OC)c2c(=S)c3ccccc3[nH]c12
Output line: 94.6

Input line: Hello, please tell me recorded residual activity for this one: Nc1nccc(-c2c(-c3ccc(F)cc3)ncn2C2CCNCC2)n1
Output line: 96.7

Input line: Hello, please tell me recorded residual activity for this one: CN([C@@H](Cc1ccc(OS(=O)(=O)c2cccc3cnccc23)cc1)C(=O)N1CCN(c2ccccc2)CC1)S(=O)(=O)c1cccc2cnccc12
Output line: 109

Input line: Hello, please tell me recorded residual activity for this one: O=C(CCCc1ccc(-c2ccccc2F)cc1)Nc1ccc(O)cc1
Output line: 102
